Origin of values: paper PMC6419574

Target: UniProt Q16658

- compound: "O=C(Nc1ccncc1)c1cn(Cc2ccc(Cl)c(Cl)c2)c(=O)c2cnn(C3CCNCC3)c12 [Compound 28]"
  Kd: "85 nM"
